Test system: ZR-75-1
Experiment: drug sensitivity score (DSS) (DSS (dimensionless)); higher = more sensitive; extreme values may be limits of the assay
Conditions: 4-OH-tamoxifen in medium 1 µM; 72 h
# drug sensitivity score values compiled below
property: drug sensitivity score

compound	property	recorded-measurement
CC(C)C[C@H](NC(=O)[C@H](CCc1ccccc1)NC(=O)CN1CCOCC1)C(=O)N[C@@H](Cc1ccccc1)C(=O)N[C@@H](CC(C)C)C(=O)[C@@]1(C)CO1 [Carfilzomib]	drug sensitivity score	16.4
CN1CCN(CCOc2cc(OC3CCOCC3)c3c(Nc4c(Cl)ccc5c4OCO5)ncnc3c2)CC1 [Saracatinib]	drug sensitivity score	0
CN(C)C/C=C/C(=O)Nc1cc2c(Nc3ccc(F)c(Cl)c3)ncnc2cc1O[C@H]1CCOC1 [Afatinib (BIBW2992, Tovok)]	drug sensitivity score	0
O=C(Cc1ccc(-c2ccc(OCCN3CCOCC3)cc2)cn1)NCc1ccccc1 [KX2-391]	drug sensitivity score	4.21
Nc1cc(C(F)(F)F)c(-c2cc(N3CCOCC3)nc(N3CCOCC3)n2)cn1 [Buparlisib (BKM-120)]	drug sensitivity score	5.88
C[C@]12O[C@H](C[C@]1(O)CO)n1c3ccccc3c3c4c(c5c6ccccc6n2c5c31)CNC4=O [Lestaurtinib]	drug sensitivity score	0
CC(O)(CS(=O)(=O)c1ccc(F)cc1)C(=O)Nc1ccc(C#N)c(C(F)(F)F)c1 (configuration not stated) [Bicalutamide]	drug sensitivity score	0

---

Listing of recorded drug sensitivity score by entry.
System: MCF-7
Experiment: drug sensitivity score (DSS) (DSS (dimensionless)); higher = more sensitive; extreme values may be limits of the assay
Conditions: 4-OH-tamoxifen in medium 1 µM; 72 h
property: drug sensitivity score

> print(dat)
                                   compound  recorded.measurement
1  COc1cccc2cc(-c3nc([C@H]4CC[C@H](C(=O)O)CC4)n4ncnc(N)c34)[nH]c12 [OSI-027]                  4.31
2  CC[C@@H]1C(=O)OC[C@@H]1Cc1cncn1C [Pilocarpine]                     0
3  Cn1c(=O)c(F)c(Nc2ccc(I)cc2F)c2c(=O)n(C[C@@H](O)CO)cnc21 [TAK-733]                  5.38

---

System: BT-474 Tam1
Assay: relative IC50 (midpoint of fitted logistic curve, plateau may be below 50% inhibition; CellTiter-Glo viability); higher = less potent
Conditions: 4-OH-tamoxifen in medium 1 µM; 72 h
# key: entry, value: relative IC50
property: relative IC50

> print(dat)
                              smiles.record  recorded.measurement
1          O=S(=O)(c1cccc2cnccc12)N1CCCNCC1               > 50 µM
2      N#Cc1ccc(C(c2ccc(C#N)cc2)n2cncn2)cc1               > 10 µM
3  C[C@]12C=CC(=O)C=C1CC[C@@H]1[C@@H]2[C@@H](O)C[C@@]2(C)[C@H]1CC[C@]2(O)C(=O)CO               > 10 µM
4          CC[C@@H]1C(=O)OC[C@@H]1Cc1cncn1C               > 40 µM
5  Nc1ccn([C@@H]2O[C@H](CO)[C@@H](O)[C@@H]2O)c(=O)n1               > 10 µM
6  CC(C)(C)c1cc(NC(=O)Nc2ccc(-c3cn4c(n3)sc3cc(OCCN5CCOCC5)ccc34)cc2)no1                > 1 µM
7  Cc1ccc(C(=O)N(CCCN)[C@@H](c2oc3cc(Cl)ccc3c(=O)c2Cc2ccccc2)C(C)C)cc1              > 0.1 µM

---

System: T-47D
Test: viability inhibition at highest dose (% inhibition); higher = more growth inhibition
Conditions: 4-OH-tamoxifen in medium 0 µM; 72 h
# viability inhibition at highest dose values compiled below

compound	viability inhibition at highest dose
C[C@]12CC[C@@H]3c4ccc(O)cc4C[C@@H](CCCCCCCCC[S+]([O-])CCCC(F)(F)C(F)(F)F)[C@H]3[C@@H]1CC[C@@H]2O (some centres undefined) [Fulvestrant] (drug 1000 nM)	1.98
C#Cc1cccc(Nc2ncnc3cc(OCCOC)c(OCCOC)cc23)c1 [Erlotinib] (drug 10000 nM)	20.8
CC(C)n1cnc2c(NCCc3ccc(O)cc3)nc(-c3csc4ccccc34)nc21 [StemRegenin 1] (drug 10000 nM)	35.4
CN(N=O)C(=O)N[C@@H](C=O)[C@@H](O)[C@H](O)[C@H](O)CO [Streptozocin] (drug 10000 nM)	-10.8

---

Test system: ZR-75-1 Tam1
Assay: viability inhibition at highest dose (% inhibition); higher = more growth inhibition
Conditions: 4-OH-tamoxifen in medium 1 µM; 72 h
Recorded viability inhibition at highest dose, one value per entry.

compound	tested-target	viability inhibition at highest dose
Nc1nc(Cl)nc2c1ncn2[C@@H]1O[C@H](CO)[C@@H](O)[C@@H]1F [Clofarabine] (drug 10000 nM)	ZR-75-1 Tam1	23.6
CN1CCN(c2ccc3nc(-c4c(N)c5c(F)cccc5[nH]c4=O)[nH]c3c2)CC1 [Dovitinib (CHIR-258)] (drug 10000 nM)	ZR-75-1 Tam1	0.00734
NC1(c2ccc(-c3nc4ccn5c(=O)[nH]nc5c4cc3-c3ccccc3)cc2)CCC1 [MK-2206] (drug 1000 nM)	ZR-75-1 Tam1	60.8
N#CCNC(=O)c1ccc(-c2ccnc(Nc3ccc(N4CCOCC4)cc3)n2)cc1 [Momelotinib (CYT-387)] (drug 10000 nM)	ZR-75-1 Tam1	7.45
CN[C@@H]1C[C@H]2O[C@@](C)([C@@H]1OC)n1c3ccccc3c3c4c(c5c6ccccc6n2c5c31)C(=O)N[C@H]4O [UCN-01] (drug 10000 nM)	ZR-75-1 Tam1	66.1
Cc1cc(Nc2nc(N[C@@H](C)c3ncc(F)cn3)ncc2Cl)[nH]n1 [AZD1480] (drug 1000 nM)	ZR-75-1 Tam1	-2.1
O=P(O)(NCCCl)NCCCl [Ifosfamide mustard] (drug 10000 nM)	ZR-75-1 Tam1	1.78
S=c1[nH]cnc2nc[nH]c12 [Mercaptopurine] (drug 10000 nM)	ZR-75-1 Tam1	35.5
O=P1(N(CCCl)CCCl)NCCCO1 (centres undefined) [Clafen (Cyclophosphamide, Endoxan)] (drug 40000 nM)	ZR-75-1 Tam1	7.03
Nc1cccc2c1CN(C1CCC(=O)NC1=O)C2=O (centres undefined) [Lenalidomide] (drug 10000 nM)	ZR-75-1 Tam1	2.97
CN(C)/N=N/c1[nH]cnc1C(N)=O [Dacarbazine] (drug 10000 nM)	ZR-75-1 Tam1	0.27
CC1(C)CNc2cc(NC(=O)c3cccnc3NCc3ccncc3)ccc21 [Motesanib (AMG-706)] (drug 10000 nM)	ZR-75-1 Tam1	-1.35
O=C1c2c(O)ccc(O)c2C(=O)c2c(NCCNCCO)ccc(NCCNCCO)c21 [Mitoxantrone] (drug 1000 nM)	ZR-75-1 Tam1	21.3
COc1cc(CCc2cc(NC(=O)c3ccc(N4CC(C)NC(C)C4)cc3)n[nH]2)cc(OC)c1 (centres undefined) [AZD4547] (drug 1000 nM)	ZR-75-1 Tam1	1.86
N#Cc1ccc(COC[C@H]2O[C@@H](n3c(NCc4ccc(Cl)c(Cl)c4)nc4c(N)ncnc43)[C@H](O)[C@@H]2O)cc1 (drug 10000 nM)	ZR-75-1 Tam1	46.4
N.N.[Cl][Pt][Cl] [Cisplatin] (drug 10000 nM)	ZR-75-1 Tam1	3.43
C[C@]12CC[C@@H]3c4ccc(O)cc4C[C@@H](CCCCCCCCC[S+]([O-])CCCC(F)(F)C(F)(F)F)[C@H]3[C@@H]1CC[C@@H]2O (some centres undefined) [Fulvestrant] (drug 1000 nM)	ZR-75-1 Tam1	-1.86
CCC1(c2ccc(N)cc2)CCC(=O)NC1=O (centres undefined) [Aminoglutethimide] (drug 10000 nM)	ZR-75-1 Tam1	9.59
Cc1[nH]c2ccccc2c1CCNCc1ccc(/C=C/C(=O)NO)cc1 [Panobinostat] (drug 1000 nM)	ZR-75-1 Tam1	43.1

---

Tested on: ZR-75-1
Assay: viability inhibition at highest dose (% inhibition); higher = more growth inhibition
Conditions: 4-OH-tamoxifen in medium 1 µM; 72 h
# Y = viability inhibition at highest dose below 10 (exclusive); N = viability inhibition at highest dose at/above 10

> print(dat)
                                   compound  answer.label
1  CCNC(=O)c1noc(-c2cc(C(C)C)c(O)cc2O)c1-c1ccc(CN2CCOCC2)cc1 [NVP-AUY922] (drug 1000 nM)             N
2  Nc1nc(Cl)nc2c1ncn2[C@@H]1O[C@H](CO)[C@@H](O)[C@@H]1F [Clofarabine] (drug 10000 nM)             N
3  O=P(O)(NCCCl)NCCCl [Ifosfamide mustard] (drug 10000 nM)             Y
4  COc1cc(Nc2ncc(F)c(Nc3ccc4c(n3)NC(=O)C(C)(C)O4)n2)cc(OC)c1OC [Tamatinib (R406)] (drug 10000 nM)             Y
5  O=C1CCC(N2C(=O)c3ccccc3C2=O)C(=O)N1 (stereo unspecified) [Thalidomide] (drug 10000 nM)             N
6  Cn1cc(C2=C(c3cn(C4CCN(Cc5ccccn5)CC4)c4ccccc34)C(=O)NC2=O)c2ccccc21 [Enzastaurin] (drug 10000 nM)             Y
